Provenance of the data: PubChem BioAssay AID1159580

assay: chemical genetic growth profiling, strain panel (AID 1159580);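 note: tested at 20 µM; growth read once vehicle control cultures reached saturation at 30 °C; 1 = growth at the plate median or of vehicle wells; lower values mean less growth of the strain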; conditions: S. cerevisiae deletion strains, growth OD, locus YMR277W, strain FCP1, active compounds read low
In all, about 5,500 compounds went through this assay and about 2,000 (36%) were called active. Inconclusive results (about 18%) are left out. Some of the results follow.
Measurement Type: normalized growth

>  <Molecule>
Cc1nnsc1C(=O)NNc1ccc(F)cc1F

>  <Recorded Number>
0.959

$$$$
>  <Molecule>
COc1cc(NC(=S)NNS(=O)(=O)c2ccc(C)cc2)c(OC)cc1Cl

>  <Recorded Number>
0.963

$$$$
>  <Molecule>
COc1cc(NC(=S)NC(=O)c2ccccc2)c(OC)cc1Cl

>  <Recorded Number>
1

$$$$
>  <Molecule>
Cc1ccc(/C=C2\CSc3ccc(F)cc3C2=O)cc1

>  <Recorded Number>
0.923

$$$$
>  <Molecule>
Cc1nnsc1C(=O)Nc1cc(C(F)(F)F)cc(C(F)(F)F)c1

>  <Recorded Number>
0.951

$$$$
>  <Molecule>
CC(=O)CSc1nnc(-c2ccc(C(C)(C)C)cc2)n1-c1ccc(Cl)cc1

>  <Recorded Number>
0.978

$$$$
>  <Molecule>
Cc1ccc(Sc2c(Sc3ccc(C)cc3)c(=O)c2=O)cc1

>  <Recorded Number>
0.882

$$$$
>  <Molecule>
COc1ccc(/C=C2\CSc3ccc(F)cc3C2=O)cc1

>  <Recorded Number>
0.929

$$$$
>  <Molecule>
O=C(Oc1ccc(C(F)(F)F)cc1[N+](=O)[O-])c1cccc(Cl)c1

>  <Recorded Number>
0.948

$$$$
>  <Molecule>
O=C(CSc1nnnn1-c1ccccc1)c1ccccc1

>  <Recorded Number>
0.946

$$$$
>  <Molecule>
Cc1ccc(OCC2SCCN2C(=O)c2ccc(C(F)(F)F)cc2)c([N+](=O)[O-])c1 (centres undefined)

>  <Recorded Number>
1.02

$$$$
>  <Molecule>
Cc1ccc2nc(-c3ccc(Cl)cc3)cn2c1

>  <Recorded Number>
0.961

$$$$
>  <Molecule>
CS(=NC(=O)c1cccc(Cl)c1)c1ccc(OC(=O)c2ccc(Cl)cc2)cc1 (centres undefined)

>  <Recorded Number>
0.968

$$$$
>  <Molecule>
O=C(NNc1ccccc1F)c1ccno1

>  <Recorded Number>
0.986

$$$$
>  <Molecule>
N#Cc1ccc(S(=O)(=O)Nc2ccccc2Oc2ccc(Cl)cc2Cl)cc1

>  <Recorded Number>
0.973

$$$$
>  <Molecule>
O=S(=O)(Nc1cccc2nsnc12)c1cc(Cl)sc1Cl

>  <Recorded Number>
0.96

$$$$
>  <Molecule>
Cc1cc(NNC(=O)c2ccccc2Cl)nc2c1c(C)nn2C

>  <Recorded Number>
0.986

$$$$
>  <Molecule>
Cc1nnsc1C(=O)NNc1c(Cl)cccc1Cl

>  <Recorded Number>
0.98

$$$$
>  <Molecule>
O=C1C(=O)N(CN2CCc3c([nH]c4ccccc34)C2C(F)(F)F)c2ccc(F)cc21 (centres undefined)

>  <Recorded Number>
0.947

$$$$
>  <Molecule>
CC(C)(C)CN/C(C#N)=C(/C#N)NCc1cccc(Cl)c1

>  <Recorded Number>
0.992

$$$$
>  <Molecule>
Cc1ccc(-c2csc(-c3cccnc3)n2)c(C)c1

>  <Recorded Number>
0.951

$$$$
>  <Molecule>
Cc1cc(Cl)ccc1NNC(=O)c1ccno1

>  <Recorded Number>
0.978

$$$$
>  <Molecule>
O=C(N/C=C/c1ccsc1)Nc1cc(C(F)(F)F)cc(C(F)(F)F)c1

>  <Recorded Number>
0.966

$$$$
>  <Molecule>
CCOC(=O)CSC(=S)NCc1ccc(C)cc1

>  <Recorded Number>
0.957

$$$$

====

normalized growth overview
assay: chemical genetic growth profiling, strain panel (AID 1159580);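 note: tested at 20 µM; growth read once vehicle control cultures reached saturation at 30 °C; 1 = growth at the plate median or of vehicle wells; lower values mean less growth of the strain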; details: S. cerevisiae deletion strains, growth OD, locus YNL322C, strain KRE1, active compounds read low
Hit rate of the full screen: of about 5,500 compounds, about 2,000 (36%) were called active. About 18% were inconclusive and are not listed. The list shows a part of the results.
Measurement Type: normalized growth

>  <Molecule>
CN1CCCN=C1COC(=O)C(O)(c1ccccc1)C1CCCCC1 (centres undefined)

>  <Measurement Type>
normalized growth

>  <Recorded Number>
1

$$$$
>  <Molecule>
Cc1cccc(Cn2c(C)c(C)c(S(=O)(=O)c3ccccc3)c2N)c1C

>  <Measurement Type>
normalized growth

>  <Recorded Number>
1

$$$$
>  <Molecule>
Cc1ccc(OS(=O)(=O)c2ccc(C#N)cc2)c(Br)c1

>  <Measurement Type>
normalized growth

>  <Recorded Number>
0.981

$$$$
>  <Molecule>
C[C@]12CCC(=O)C=C1CCC1C2CC[C@@]2(C)C1CC[C@@H]2O (some centres undefined)

>  <Measurement Type>
normalized growth

>  <Recorded Number>
1.02

$$$$
>  <Molecule>
N[C@@H](C(=O)O)c1ccccc1

>  <Measurement Type>
normalized growth

>  <Recorded Number>
1.01

$$$$
>  <Molecule>
COc1ccc(OC)c(C(O)C(C)N)c1 (centres undefined)

>  <Measurement Type>
normalized growth

>  <Recorded Number>
1.01

$$$$
>  <Molecule>
CN(C)C(=S)SSC(=S)N(C)C

>  <Measurement Type>
normalized growth

>  <Recorded Number>
0.0479

$$$$
>  <Molecule>
ClC1=C(Cl)C2(Cl)C3C4C=CC(C4)C3C1(Cl)C2(Cl)Cl (centres undefined)

>  <Measurement Type>
normalized growth

>  <Recorded Number>
1

$$$$
>  <Molecule>
COc1ccc(NC(=O)c2cc(C(F)(F)F)cc(C(F)(F)F)c2)cn1

>  <Measurement Type>
normalized growth

>  <Recorded Number>
0.938

$$$$
>  <Molecule>
C[C@H]1OC(n2cc(F)c(=O)[nH]c2=O)C(O)[C@@H]1O (some centres undefined)

>  <Measurement Type>
normalized growth

>  <Recorded Number>
0.998

$$$$
>  <Molecule>
CC1CC2C3CC(F)C4=CC(=O)C=CC4(C)C3(F)C(O)CC2(C)C1(O)C(=O)CO (centres undefined)

>  <Measurement Type>
normalized growth

>  <Recorded Number>
1.02

$$$$
>  <Molecule>
Cc1cccc(C)c1OCC(C)N (centres undefined)

>  <Measurement Type>
normalized growth

>  <Recorded Number>
0.991

$$$$
>  <Molecule>
CC1(C(=O)O)C2CCC(O2)C1(C)C(=O)O (centres undefined)

>  <Measurement Type>
normalized growth

>  <Recorded Number>
0.989

$$$$
>  <Molecule>
NC(=O)c1ccc[n+]([C@@H]2O[C@H](COP(=O)([O-])OP(=O)(O)OC[C@H]3O[C@@H](n4cnc5c(N)ncnc54)[C@H](O)[C@@H]3O)[C@@H](O)[C@H]2O)c1

>  <Measurement Type>
normalized growth

>  <Recorded Number>
0.983

$$$$
>  <Molecule>
C/C=C1\C(=O)CC2C3CCC4=CC(=O)CC[C@]4(C)C3CC[C@]12C (some centres undefined)

>  <Measurement Type>
normalized growth

>  <Recorded Number>
1.01

$$$$
>  <Molecule>
CP(=O)(O)C1=CCNCC1

>  <Measurement Type>
normalized growth

>  <Recorded Number>
1.01

$$$$
>  <Molecule>
O=C(O)c1cc2ccccc2[nH]1

>  <Measurement Type>
normalized growth

>  <Recorded Number>
1.02

$$$$
>  <Molecule>
C[C@H]1O[C@@H](n2cc(F)c(=O)[nH]c2=O)[C@H](O)[C@@H]1O

>  <Measurement Type>
normalized growth

>  <Recorded Number>
1.02

$$$$
>  <Molecule>
C=Cc1c2[nH]c(c1C)C=c1[nH]c(c(C)c1C=C)=CC1N=C(C=c3[nH]c(c(C)c3CCC(=O)O)=C2)C(CCC(=O)O)=C1C (centres undefined)

>  <Measurement Type>
normalized growth

>  <Recorded Number>
0.989

$$$$
>  <Molecule>
CCCc1cc(=O)c2ccc(O)cc2o1

>  <Measurement Type>
normalized growth

>  <Recorded Number>
0.966

$$$$
>  <Molecule>
CC1(C)C(C=C(Cl)Cl)C1C(=O)OC(C#N)c1cccc(Oc2ccccc2)c1 (centres undefined)

>  <Measurement Type>
normalized growth

>  <Recorded Number>
0.994

$$$$
>  <Molecule>
CCC(=O)Nc1cc(F)ccc1C

>  <Measurement Type>
normalized growth

>  <Recorded Number>
0.997

$$$$
>  <Molecule>
COc1cc2c(cc1OC)[C@@H]1C(=O)c3ccc(O)c(CC=C(C)C)c3O[C@@H]1CO2

>  <Measurement Type>
normalized growth

>  <Recorded Number>
0.985

$$$$
>  <Molecule>
CN1CCC(=C2c3ccccc3Sc3ccccc32)CC1

>  <Measurement Type>
normalized growth

>  <Recorded Number>
1.01

$$$$
>  <Molecule>
COc1cc2c(cc1OC)C(=O)OC2

>  <Measurement Type>
normalized growth

>  <Recorded Number>
1.01

$$$$
>  <Molecule>
CC(C)(C)C(=O)Nc1ccc(F)cc1

>  <Measurement Type>
normalized growth

>  <Recorded Number>
0.994

$$$$
>  <Molecule>
OC1(c2ccc(Cl)cc2)CCN(Cc2c[nH]c3ccccc23)CC1

>  <Measurement Type>
normalized growth

>  <Recorded Number>
0.993

$$$$
>  <Molecule>
CC(Oc1ccccc1)C(=O)N[C@@H]1C(=O)N2[C@@H]1SC(C)(C)[C@@H]2C(=O)O (some centres undefined)

>  <Measurement Type>
normalized growth

>  <Recorded Number>
1.01

$$$$
>  <Molecule>
COc1cc2c(cc1OC)C1C(=O)c3ccc4c(c3OC1CO2)CCC(C)(C)O4 (centres undefined)

>  <Measurement Type>
normalized growth

>  <Recorded Number>
1

$$$$
>  <Molecule>
COc1cc2c(cc1OC)CC(=O)OC2

>  <Measurement Type>
normalized growth

>  <Recorded Number>
0.979

$$$$
>  <Molecule>
CC(=O)[C@H]1CCC2C3CCC4=CC(=O)CC[C@]4(C)C3CC[C@@]21C (some centres undefined)

>  <Measurement Type>
normalized growth

>  <Recorded Number>
0.989

$$$$
>  <Molecule>
COc1cc(C(F)(F)F)cc(C(F)(F)F)c1C(=O)Nc1cc(C(F)(F)F)cc(C(F)(F)F)c1

>  <Measurement Type>
normalized growth

>  <Recorded Number>
1.01

$$$$
>  <Molecule>
CCOC(=O)C(=CNc1cccc(C#N)c1)C(=O)OCC

>  <Measurement Type>
normalized growth

>  <Recorded Number>
0.997

$$$$
>  <Molecule>
CC(C(=O)O)c1cccc(Oc2ccccc2)c1 (centres undefined)

>  <Measurement Type>
normalized growth

>  <Recorded Number>
0.969

$$$$
>  <Molecule>
CCC(C)C(=O)O[C@H]1[C@H](O)C2C(CN3CC(C)CCC3[C@@]2(C)O)C2C[C@]34O[C@]5(O)C(OC(=O)C(C)(O)C(C)O)CC[C@@]3(C)C5C(OC(C)=O)[C@@H](OC(C)=O)C4[C@@]21O (some centres undefined)

>  <Measurement Type>
normalized growth

>  <Recorded Number>
1.01

$$$$
>  <Molecule>
CC1(C)OC(=O)NC1=O

>  <Measurement Type>
normalized growth

>  <Recorded Number>
1.01

$$$$
>  <Molecule>
COc1cc2c(cc1OC)[C@@H]1C(=O)c3ccc(OC)c(CC=C(C)C)c3O[C@@H]1CO2

>  <Measurement Type>
normalized growth

>  <Recorded Number>
1.02

$$$$
>  <Molecule>
COc1ccc(OC)c(S(=O)(=O)Nc2ccc(C#N)cc2)c1

>  <Measurement Type>
normalized growth

>  <Recorded Number>
0.993

$$$$
>  <Molecule>
O=C(O)c1c2ccccc2cc2ccccc12

>  <Measurement Type>
normalized growth

>  <Recorded Number>
1.02

$$$$
>  <Molecule>
COc1cc2c(cc1OC)[C@@H]1C(=O)c3ccc4c(c3O[C@@H]1CO2)C=CC(C)(C)O4

>  <Measurement Type>
normalized growth

>  <Recorded Number>
0.987

$$$$
>  <Molecule>
CN(C)c1ccc(C(=C2C=CC(=[N+](C)C)C=C2)c2ccc(N(C)C)cc2)cc1

>  <Measurement Type>
normalized growth

>  <Recorded Number>
0.318

$$$$
>  <Molecule>
CCOc1ccc(/C=C(\C#N)c2cccc(Cl)c2)cc1

>  <Measurement Type>
normalized growth

>  <Recorded Number>
0.975

$$$$
>  <Molecule>
CN1CCC(=C2c3ccccc3C=Cc3ccccc32)CC1

>  <Measurement Type>
normalized growth

>  <Recorded Number>
0.993

$$$$
>  <Molecule>
ClC1=C(Cl)C2(Cl)C3C(Cl)C=CC3C1(Cl)C2(Cl)Cl (centres undefined)

>  <Measurement Type>
normalized growth

>  <Recorded Number>
1

$$$$
